Quick reference: magratio of the listed items.
Target Or System: HCoV-HKU1-3CL (Human coronavirus HKU1, UniProt P0C6X2)
Sequence (P0C6X2 3335-3637 limits assumed): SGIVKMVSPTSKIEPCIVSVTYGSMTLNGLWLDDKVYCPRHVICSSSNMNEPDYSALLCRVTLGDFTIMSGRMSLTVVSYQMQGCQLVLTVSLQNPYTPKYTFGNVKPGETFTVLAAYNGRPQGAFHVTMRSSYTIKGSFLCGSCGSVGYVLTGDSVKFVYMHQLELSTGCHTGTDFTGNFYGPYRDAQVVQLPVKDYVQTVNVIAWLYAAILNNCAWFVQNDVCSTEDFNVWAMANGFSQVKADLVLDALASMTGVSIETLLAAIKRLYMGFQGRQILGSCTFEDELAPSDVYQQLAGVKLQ
Format: cell-based
Please respond with just the number, no unit label.

Known results for compounds:
Compound	Target Or System	Measured Parameter	Obs Value
O=C(Oc1ccc2ccc(=O)oc2c1)c1ccco1	HCoV-HKU1-3CL (Human coronavirus HKU1, UniProt P0C6X2)	magratio	0.7283
COc1cc(O)c(C(=O)/C=C/c2ccccc2)c(OC)c1	HCoV-HKU1-3CL (Human coronavirus HKU1, UniProt P0C6X2)	magratio	0.2725
Cc1cc2c(cc1C)N(C(=O)CCl)CC(=O)N2	HCoV-HKU1-3CL (Human coronavirus HKU1, UniProt P0C6X2)	magratio	0.303
O=C(Oc1ccc2ccc(=O)oc2c1)c1cccs1	HCoV-HKU1-3CL (Human coronavirus HKU1, UniProt P0C6X2)	magratio	0.5727
O=C(Oc1cncc(Cl)c1)c1cccs1 [MAC-5576, reference compound]	HCoV-HKU1-3CL (Human coronavirus HKU1, UniProt P0C6X2)	magratio	1.559

Kindly consider the entry below.
Request: Specify reported magratio for the compound shown: CCc1cc(=O)oc2cc(OC(=O)c3ccco3)ccc12
Response: 0.5819

---

Quick reference: magratio of the listed items.
Target Or System: HCoV-NL63-3CL (Human coronavirus NL63, UniProt P0C6X5)
Sequence (P0C6X5 2940-3242 limits assumed): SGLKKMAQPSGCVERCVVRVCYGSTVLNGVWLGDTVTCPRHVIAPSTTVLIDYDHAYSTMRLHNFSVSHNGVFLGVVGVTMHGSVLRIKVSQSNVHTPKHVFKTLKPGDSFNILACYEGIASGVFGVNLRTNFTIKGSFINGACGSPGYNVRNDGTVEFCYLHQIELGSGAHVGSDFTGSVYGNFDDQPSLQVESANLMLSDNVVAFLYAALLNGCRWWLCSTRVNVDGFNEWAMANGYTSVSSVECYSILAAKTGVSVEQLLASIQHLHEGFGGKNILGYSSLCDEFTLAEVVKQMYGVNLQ
Assay type: cell-based
Please respond with just the number, no unit label.

Compound	magratio
O=C(Oc1ccc2ccc(=O)oc2c1)c1ccco1	0.4867
CCc1cc(=O)oc2cc(OC(=O)c3ccco3)ccc12	0.2557
O=C(Oc1ccc2ccc(=O)oc2c1)c1cccs1	0.351

Kindly consider the entry below.
Request: Send back HCoV-NL63-3CL (Human coronavirus NL63, UniProt P0C6X5) magratio of O=C(Oc1cncc(Cl)c1)c1cccs1 [MAC-5576, reference compound] only.
Response: 1.688

---

Target Or System: UniProt P0DTD1
Protocol: Biochemical inhibition of peptide cleavage by purified SARS-CoV-2 3CL protease (fluorogenic)
Conditions Used: biochemical fluorogenic assay; read-out: IC50, purified SARS-CoV-2 3CL protease
Measured Parameter: IC50
Report as: number unit

Request: Specify reported IC50 for the molecule shown: O=C(Oc1ccc2ccc(=O)oc2c1)c1ccco1 [CB6778425]
Response: 0.062 µM

---

Target Or System: Bat-CoV-HKU9-3CL (Bat coronavirus HKU9, UniProt P0C6W5)
Sequence (P0C6W5 3104-3409 limits assumed): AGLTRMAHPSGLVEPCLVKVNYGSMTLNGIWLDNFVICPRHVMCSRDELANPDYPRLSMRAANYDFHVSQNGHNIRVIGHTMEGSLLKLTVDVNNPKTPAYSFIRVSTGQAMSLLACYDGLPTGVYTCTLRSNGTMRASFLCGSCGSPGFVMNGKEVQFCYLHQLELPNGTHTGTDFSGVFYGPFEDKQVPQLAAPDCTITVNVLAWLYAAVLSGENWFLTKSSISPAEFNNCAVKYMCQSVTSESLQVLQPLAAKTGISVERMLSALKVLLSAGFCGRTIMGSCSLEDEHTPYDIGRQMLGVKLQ
Assay type: cell-based
Quick reference: magratio of the listed items.
Please respond with just the number, no unit label.

Molecule	Obs Value
O=C(Oc1ccc2ccc(=O)oc2c1)c1cccs1	0.9258
O=C(Oc1ccc2ccc(=O)oc2c1)c1ccco1	0.8169
CCc1cc(=O)oc2cc(OC(=O)c3ccco3)ccc12	0.9832

Request: Send back Bat-CoV-HKU9-3CL (Bat coronavirus HKU9, UniProt P0C6W5) magratio of O=C(Oc1cncc(Cl)c1)c1cccs1 [MAC-5576, reference compound] only.
Response: 1.805

---

Target Or System: SARS-CoV-3CL (Severe acute respiratory syndrome coronavirus)
Format: cell-based
Quick reference: magratio of the listed items.
Please respond with just the number, no unit label.

Known results for compounds:
Compound	magratio
NC(N)=NC(=S)Nc1ccc(Cl)cc1	0.3199
CCc1cc(=O)oc2cc(OC(=O)c3ccco3)ccc12	1.394
O=C(Oc1ccc2ccc(=O)oc2c1)c1ccco1	0.5878

Request: Send back SARS-CoV-3CL (Severe acute respiratory syndrome coronavirus) magratio of O=C(Oc1ccc2ccc(=O)oc2c1)c1cccs1 only.
Response: 0.6861

Request: Send back SARS-CoV-3CL (Severe acute respiratory syndrome coronavirus) magratio of O=C(Oc1cncc(Cl)c1)c1cccs1 [MAC-5576, reference compound] only.
Response: 2.282

---

Target Or System: MERS-CoV-3CL (Middle East respiratory syndrome-related coronavirus, UniProt K9N7C7)
Sequence (K9N7C7 3248-3553 limits assumed): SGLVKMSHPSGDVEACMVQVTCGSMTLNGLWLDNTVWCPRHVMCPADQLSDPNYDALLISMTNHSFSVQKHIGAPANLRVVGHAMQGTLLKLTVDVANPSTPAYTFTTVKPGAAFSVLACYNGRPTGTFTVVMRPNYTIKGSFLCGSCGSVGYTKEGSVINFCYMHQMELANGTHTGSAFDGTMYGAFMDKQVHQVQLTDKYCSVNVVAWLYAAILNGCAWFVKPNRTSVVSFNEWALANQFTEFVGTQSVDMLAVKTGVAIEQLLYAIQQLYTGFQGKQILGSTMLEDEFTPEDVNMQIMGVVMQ
Format: cell-based
Quick reference: magratio of the listed items.
Please respond with just the number, no unit label.

Known results for compounds:
Compound	Obs Value
O=C(Oc1ccc2ccc(=O)oc2c1)c1ccco1	0.8027
CN(C(=O)c1ccncc1)c1ccccc1	0.3045
O=C(Oc1cncc(Cl)c1)c1cccs1 [MAC-5576, reference compound]	1.133
CCc1cc(=O)oc2cc(OC(=O)c3ccco3)ccc12	0.4038
CCOC(=O)C(=O)Cc1nc2ccccc2s1	0.2455

Request: Specify reported magratio for the compound shown: CCSc1nc(=S)cc(C)[nH]1
Response: 0.2279

---

Target Or System: Bat-CoV-HKU4-3CL (Bat coronavirus HKU4, UniProt P0C6W3)
Sequence (P0C6W3 3292-3597 limits assumed): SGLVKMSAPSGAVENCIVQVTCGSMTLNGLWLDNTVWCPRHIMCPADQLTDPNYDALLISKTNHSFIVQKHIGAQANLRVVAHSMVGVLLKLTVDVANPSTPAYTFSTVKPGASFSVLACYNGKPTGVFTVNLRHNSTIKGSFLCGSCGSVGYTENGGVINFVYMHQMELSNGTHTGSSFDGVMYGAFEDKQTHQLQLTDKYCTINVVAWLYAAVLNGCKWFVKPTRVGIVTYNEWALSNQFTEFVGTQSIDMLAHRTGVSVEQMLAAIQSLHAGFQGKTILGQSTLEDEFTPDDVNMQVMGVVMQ
Assay type: cell-based
Quick reference: magratio of the listed items.

Known results for compounds:
Compound	Target Or System	Obs Value
CCOC(=O)c1c(NC(=S)NC)sc2c1CCCC2	Bat-CoV-HKU4-3CL (Bat coronavirus HKU4, UniProt P0C6W3)	0.288
S=c1[nH]c2ccccc2n2cccc12	Bat-CoV-HKU4-3CL (Bat coronavirus HKU4, UniProt P0C6W3)	0.2265

Request: Send back Bat-CoV-HKU4-3CL (Bat coronavirus HKU4, UniProt P0C6W3) magratio of CCc1cc(=O)oc2cc(OC(=O)c3ccco3)ccc12 only.
Response: 0.5386

Request: Send back Bat-CoV-HKU4-3CL (Bat coronavirus HKU4, UniProt P0C6W3) magratio of Cc1cc2c(cc1C)N(C(=O)CCl)CC(=O)N2 only.
Response: 0.217

Request: Send back Bat-CoV-HKU4-3CL (Bat coronavirus HKU4, UniProt P0C6W3) magratio of O=C(Oc1ccc2ccc(=O)oc2c1)c1cccs1 only.
Response: 0.7004

Request: Send back Bat-CoV-HKU4-3CL (Bat coronavirus HKU4, UniProt P0C6W3) magratio of O=C(Oc1ccc2ccc(=O)oc2c1)c1ccco1 only.
Response: 0.5241

Request: Send back Bat-CoV-HKU4-3CL (Bat coronavirus HKU4, UniProt P0C6W3) magratio of O=C(Oc1cncc(Cl)c1)c1cccs1 [MAC-5576, reference compound] only.
Response: 0.8566

---

pIC50 data for SARS-CoV-2 PLP (Severe acute respiratory syndrome coronavirus 2, UniProt P0DTD1) follow.
Answer as the number alone; pIC50 is minus log10 of concentration in mol/L.

Known results for compounds:
Chemical Smiles	pIC50
CNC(=O)Oc1c(OC(C)C)ccnc1C	5.24
CNC(=O)Oc1c(OCc2ccccc2)ccnc1C	5.01
CCOc1ccnc(C)c1OC(=O)NC	4.85
CNC(=O)Oc1c(OC)ccnc1C	4.74

Kindly consider the entry below.
Request: Send back SARS-CoV-2 PLP (Severe acute respiratory syndrome coronavirus 2, UniProt P0DTD1) pIC50 of CNC(=O)Oc1c(OCC2CCCCC2)ccnc1C only.
Response: 5.46

---

Quick reference: pEC50 of the listed items.
Target Or System: SARS-CoV-PLP (Severe acute respiratory syndrome coronavirus)
Protocol: cell-based
pEC50: −log10 of the molar value.

Chemical Smiles	pEC50
CCOc1ccnc(C)c1OC(=O)NC	5.77 to 6.40

Request: Specify reported pEC50 for the compound shown: CNC(=O)Oc1c(OCc2ccccc2)ccnc1C
Response: 5.77 to 6.40

Request: Specify reported pEC50 for the compound shown: CNC(=O)Oc1c(OC(C)C)ccnc1C
Response: 5.77 to 6.40

Request: Specify reported pEC50 for the compound shown: CNC(=O)Oc1c(OCC2CCCCC2)ccnc1C
Response: 5.77 to 6.40

Request: Specify reported pEC50 for the compound shown: CNC(=O)Oc1c(OC)ccnc1C
Response: 5.77 to 6.40

Request: Specify reported pEC50 for the compound shown: CNC(=O)Oc1c(C)[nH]ccc1=O
Response: 4.64

---

Quick reference: magratio of the listed items.
Target Or System: HAV-3C (Human hepatitis A virus genotype IB, UniProt P08617)
Type: cell-based

Known results for molecules:
Molecule	magratio
CCc1cc(=O)oc2cc(OC(=O)c3ccco3)ccc12	0.4338
O=C(Oc1ccc2ccc(=O)oc2c1)c1cccs1	0.356
O=C(Oc1cncc(Cl)c1)c1cccs1 [MAC-5576, reference compound]	0.7585

Kindly consider the entry below.
Request: Specify reported magratio for the molecule shown: O=C(Oc1ccc2ccc(=O)oc2c1)c1ccco1
Response: 0.5812

---

Quick reference: magratio of the listed items.
Target Or System: HCoV-229E-3CL (Human coronavirus 229E)
Sequence (P0C6X1 2966-3267 limits assumed): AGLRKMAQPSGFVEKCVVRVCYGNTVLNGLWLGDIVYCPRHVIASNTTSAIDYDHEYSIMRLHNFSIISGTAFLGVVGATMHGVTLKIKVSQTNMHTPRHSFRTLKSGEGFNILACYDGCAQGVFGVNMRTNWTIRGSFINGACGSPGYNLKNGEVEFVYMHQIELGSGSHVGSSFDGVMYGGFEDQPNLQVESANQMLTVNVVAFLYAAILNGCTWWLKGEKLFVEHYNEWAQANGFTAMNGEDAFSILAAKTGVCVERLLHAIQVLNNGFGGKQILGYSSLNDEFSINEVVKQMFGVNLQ
Assay type: cell-based
Please respond with just the number, no unit label.

Known results for compounds:
Compound	magratio
CCc1cc(=O)oc2cc(OC(=O)c3ccco3)ccc12 [CB6728297]	0.2941
O=C(Oc1ccc2ccc(=O)oc2c1)c1ccco1 [CB6778425]	0.4915
O=C(Oc1cncc(Cl)c1)c1cccs1 [MAC-5576, reference compound]	1.36

Kindly consider the entry below.
Request: Specify reported magratio for the compound shown: O=C(Oc1ccc2ccc(=O)oc2c1)c1cccs1 [CB6762077]
Response: 0.2867

---

Quick reference: magratio of the listed items.
Target Or System: SARS-CoV-2-3CL (Severe acute respiratory syndrome coronavirus 2, UniProt P0DTD1)
Assay type: cell-based
Please respond with just the number, no unit label.

Known results for compounds:
Compound	magratio
CCc1cc(=O)oc2cc(OC(=O)c3ccco3)ccc12	0.9863
O=C(Oc1ccc2ccc(=O)oc2c1)c1ccco1	0.6675
NC(N)=NC(=S)Nc1ccc(Cl)cc1	0.7395
O=C(Oc1cncc(Cl)c1)c1cccs1 [MAC-5576, reference compound]	0.9818
O=C(Oc1ccc2ccc(=O)oc2c1)c1cccs1	0.436

Kindly consider the entry below.
Request: Specify reported magratio for the compound shown: Cc1cc2c(cc1C)N(C(=O)CCl)CC(=O)N2
Response: 0.2809
